Test protocol: Toxicity liver stage against HepG2, at 10uM
Format: cell-based
Set-up: test concentration 10 uM, cell line HepG2-A16-CD81EGFP
Conditions used: human, HepG2-A16-CD81EGFP cells; read-out: INHIBITION
Could you mark each record True if its cytotoxicity at 10 µM falls strictly under 10%, and False if it equals or exceeds it?

Dear reviewer, please state whether CSc1ccc(CNC2CCCc3c2cnn3C)cc1 (stereo not given) has cytotoxicity at 10 µM strictly beneath 10%. True

Dear reviewer, please state whether `CN1CCCN(C(=O)c2cc(-c3cc[nH]n3)n3ccccc23)CC1` has cytotoxicity at 10 µM strictly beneath 10%. False

Dear reviewer, please state whether `O=C(c1ccc(-c2cccc3c2CCNC3)o1)N1CCOCC1` has cytotoxicity at 10 µM strictly beneath 10%. True

Dear reviewer, please state whether `Fc1ccccc1-c1cc(N2[C@@H]3CC[C@H]2CNC3)n2nccc2n1` has cytotoxicity at 10 µM strictly beneath 10%. False

Dear reviewer, please state whether `O=C(CCO)N[C@H]1CN(CC2CCC2)C[C@@H]1c1ccccc1` has cytotoxicity at 10 µM strictly beneath 10%. True

====

Test protocol: Toxicity liver stage against HepG2, at 10uM
Format: cell-based
Parameters: test concentration 10 uM, cell line HepG2-A16-CD81EGFP
Conditions used: human, HepG2-A16-CD81EGFP cells; read-out: INHIBITION
Assay endpoint: cytotoxicity at 10 µM (%)
Just the number in %, nothing appended.

Given item COc1ccc(NC(=O)NCC(O)c2ccc(F)cc2F)c(OC)c1 (stereo not drawn) , the value recorded as its cytotoxicity at 10 µM is 2.79

Given item CC(C)c1n[nH]c(C2CN(C(=O)Cn3ccccc3=O)CCO2)n1 (stereo not drawn) , the value recorded as its cytotoxicity at 10 µM is -0.924

Given item Cc1ccc(CN2CC(C(=O)NC(C)C)C3(CCOCC3)C2)s1 (stereo not drawn) , the value recorded as its cytotoxicity at 10 µM is 1.12

Given item `CS(=O)(=O)CCS(=O)(=O)Cc1cc(Cl)c2c(c1)OCCCO2` , the value recorded as its cytotoxicity at 10 µM is -0.0261

Given item CCOC(=O)CC1CCCCN1C(=O)c1cc(C)oc1C (stereo not drawn) , the value recorded as its cytotoxicity at 10 µM is 5.44

Given item `CCOCC(=O)N1CCC(c2nccn2Cc2cscn2)CC1` , the value recorded as its cytotoxicity at 10 µM is -5.58

Given item O=C(CN1CCN(CC2CCOc3ccccc3C2)CC1)N1CCCC1 (stereo not drawn) , the value recorded as its cytotoxicity at 10 µM is -4.02

Given item COc1ccc(OCCc2sc(C3(O)CCCNCC3)nc2C)cc1 (stereo not drawn) , the value recorded as its cytotoxicity at 10 µM is -14.9

Given item `CN(CC(=O)NC(C)(C)C)Cc1cccc2c1OCCO2` , the value recorded as its cytotoxicity at 10 µM is -26.5

Given item CCNC(=O)CN1CCC(OCC2CCCO2)CC1 (stereo not drawn) , the value recorded as its cytotoxicity at 10 µM is -3.78

Given item COCCOC1CCN(C(C(=O)O)c2c(Cl)cccc2OC)CC1 (stereo not drawn) , the value recorded as its cytotoxicity at 10 µM is 6.15

Given item `CC(C)n1cnnc1CN(C)Cc1cnc(-c2ccco2)nc1` , the value recorded as its cytotoxicity at 10 µM is 10.8

Given item CN(C)c1ncc(NC(=O)N2CCC(CN3CCCC3)C2)cn1 (stereo not drawn) , the value recorded as its cytotoxicity at 10 µM is 3.88

Given item Cc1nc(C2CCCN(C(=O)CCCn3ccnc3C)C2)no1 (stereo not drawn) , the value recorded as its cytotoxicity at 10 µM is -13.4

Given item O=C(CCc1ccccc1F)N1CCCC(OCc2cccnc2)C1 (stereo not drawn) , the value recorded as its cytotoxicity at 10 µM is -5.44

Given item `CC1CCN(CCNC(=O)C2CCN(C(=O)C(C)(C)C)CC2)CC1` , the value recorded as its cytotoxicity at 10 µM is 6.81

Given item `Cc1ccc(CSCCn2nc3ccccn3c2=O)cc1` , the value recorded as its cytotoxicity at 10 µM is 5.64

Given item `Cc1ccc(-c2nc(CCNC(=O)NC3CCN(C)CC3)co2)cc1` , the value recorded as its cytotoxicity at 10 µM is -6.71
